Test system: Crude diglycosidase
Experiment: Examination of temperature in the conversion into isoflavone aglycons by diglycosidase using soybean materials
Format: biochemical, Penicillium multicolor IAM7153
Design: concentration or dose not given beside the values
Settings: 55 °C; heat treatment of enzyme: yes; 6 h
readout_type: Decomposition efficiency of glycitin family in roasted soy flour (%)
Numbers only, in %.

Reference set, count: 2
State, in one line, measured Decomposition efficiency of glycitin family in roasted soy flour of COc1cc2c(=O)c(-c3ccc(O)cc3)coc2cc1O[C@@H]1O[C@H](CO)[C@@H](O)[C@H](O)[C@H]1O
51.7

State, in one line, measured Decomposition efficiency of glycitin family in roasted soy flour of COc1cc2c(=O)c(-c3ccc(O)cc3)coc2cc1O[C@@H]1O[C@H](COC(C)=O)[C@@H](O)[C@H](O)[C@H]1O
37.3

---
State, in one line, measured Decomposition efficiency of glycitin family in roasted soy flour of COc1cc2c(=O)c(-c3ccc(O)cc3)coc2cc1O
11.0

====

System: Diglycosidase derived from A. fumigatus
Test: Reactivity toward various isoflavone glycosides (HPLC)
Assay type: biochemical, Aspergillus fumigatus
Parameters: unit not given here
Settings: Reaction time 3 h; 55 °C, pH 4.0
readout_type: glucoside

State, in one line, measured glucoside of CC(=O)OC[C@H]1O[C@@H](Oc2ccc3c(=O)c(-c4ccc(O)cc4)coc3c2)[C@H](O)[C@@H](O)[C@@H]1O
52.8

State, in one line, measured glucoside of COc1cc2c(=O)c(-c3ccc(O)cc3)coc2cc1O[C@@H]1O[C@H](COC(=O)CC(=O)O)[C@@H](O)[C@H](O)[C@H]1O
99.2

State, in one line, measured glucoside of O=C(O)CC(=O)OC[C@H]1O[C@@H](Oc2ccc3c(=O)c(-c4ccc(O)cc4)coc3c2)[C@H](O)[C@@H](O)[C@@H]1O
79.5

Parameters: items (list). Returns: glucoside for each item.
1. COc1cc2c(=O)c(-c3ccc(O)cc3)coc2cc1O[C@@H]1O[C@H](CO)[C@@H](O)[C@H](O)[C@H]1O
2. CC(=O)OC[C@H]1O[C@@H](Oc2cc(O)c3c(=O)c(-c4ccc(O)cc4)coc3c2)[C@H](O)[C@@H](O)[C@@H]1O
3. O=c1c(-c2ccc(O)cc2)coc2cc(O[C@@H]3O[C@H](CO)[C@@H](O)[C@H](O)[C@H]3O)cc(O)c12

100
77.1
100

====

Test system: β-Xylosidase derived from pectinase G
Test: Reactivity toward various isoflavone glycosides (HPLC)
Type: biochemical
Set-up: unit not given here
Details: Reaction time 0 h; 55 °C, pH 4.0
readout_type: glucoside

Reference set, count: 3
State, in one line, measured glucoside of CC(=O)OC[C@H]1O[C@@H](Oc2ccc3c(=O)c(-c4ccc(O)cc4)coc3c2)[C@H](O)[C@@H](O)[C@@H]1O
100

State, in one line, measured glucoside of O=C(O)CC(=O)OC[C@H]1O[C@@H](Oc2cc(O)c3c(=O)c(-c4ccc(O)cc4)coc3c2)[C@H](O)[C@@H](O)[C@@H]1O
100

State, in one line, measured glucoside of O=c1c(-c2ccc(O)cc2)coc2cc(O[C@@H]3O[C@H](CO)[C@@H](O)[C@H](O)[C@H]3O)ccc12
99.1

Now consider a different molecule.
State, in one line, measured glucoside of O=c1c(-c2ccc(O)cc2)coc2cc(O[C@@H]3O[C@H](CO)[C@@H](O)[C@H](O)[C@H]3O)cc(O)c12
100
